# tgt: human A2a receptor (Homo sapiens, UniProt P29274)
# Sequence (P29274 whole entry): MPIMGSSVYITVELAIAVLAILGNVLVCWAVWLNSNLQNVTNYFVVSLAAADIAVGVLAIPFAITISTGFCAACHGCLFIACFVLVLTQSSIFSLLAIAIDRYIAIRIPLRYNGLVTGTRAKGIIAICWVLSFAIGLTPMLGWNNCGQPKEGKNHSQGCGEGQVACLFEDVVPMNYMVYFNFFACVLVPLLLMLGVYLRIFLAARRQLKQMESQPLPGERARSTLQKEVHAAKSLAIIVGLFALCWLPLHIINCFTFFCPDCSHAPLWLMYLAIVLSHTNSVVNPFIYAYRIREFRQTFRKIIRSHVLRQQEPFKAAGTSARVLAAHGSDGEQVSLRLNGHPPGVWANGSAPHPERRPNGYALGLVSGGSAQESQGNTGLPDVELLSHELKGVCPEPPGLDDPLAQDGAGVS
# test.method.notes: A2a receptor competition binding assay using Scintillation Proximity technology
# condition.description: membranes from HEK293 cells expressing human A2a receptor; 0.5 nM tritiated radioligand; SPA beads; 1 h room temperature
observed.property: EC50 (nM)

1. COc1cccc2c1nc(N)n1nc(CN3CCCc4ccc(C)nc43)nc21    6
2. COc1cccc2c1nc(N)n1nc(CN3CCc4ccc(-c5cnc(C(F)(F)F)nc5)cc4C3)nc21    6.1
3. COc1cccc2c1nc(N)n1nc(CCN3CCc4ccc(-c5cncnc5)cc4C3)nc21    6.1
4. COc1cccc2c1nc(N)n1nc(CN3CCc4cc(C#N)ccc4C3)nc21    6

====

# tgt: UniProt:P29274
# test.method.notes: A2a receptor competition binding assay using Scintillation Proximity technology
# condition.description: membranes from HEK293 cells expressing human A2a receptor; 0.5 nM tritiated radioligand; SPA beads; 1 h room temperature
observed.property: EC50 (nM)

The examples below pair each entry with its known result.
1) COc1cccc2c1nc(N)n1nc(C[C@@H](C)N3CCc4nc(C)sc4C3)nc21    3
2) COc1cccc2c1nc(N)n1nc(C[C@@H](C)N3Cc4nc(C)oc4C3)nc21    0.2
3) COc1cccc2c1nc(N)n1nc(CCN3CCc4c(sc(C5CC5)c4C#N)C3)nc21    2.2
4) COc1cccc2c1nc(N)n1nc(CCCN3Cc4cccnc4C3)nc21    7.7
5) COc1cccc2c1nc(N)n1nc(CN3CCc4cc(Br)cnc43)nc21    2.2

A = COc1cccc2c1nc(N)n1nc(CCN3Cc4nc(C)oc4C3)nc21
B = COc1cccc2c1nc(N)n1nc(CC(N3Cc4cccnc4C3)C(F)(F)F)nc21 (centres unmarked)
C = CCC(Cc1nc2c3cccc(OC)c3nc(N)n2n1)N1Cc2cccnc2C1 (centres unmarked)
D = Nc1nc2c(F)cccc2c2nc(CCN3Cc4cccc(F)c4C3)nn12
E = COc1cccc2c1nc(N)n1nc(CCN3CCc4c(Br)ccnc4C3)nc21
Sort the 5 molecules by EC50; largest first, smallest last. State the ranking by listing the labels in the requested order.
D, B, C, E, A
(D: 47.7 nM, B: 17.9 nM, C: 11.9 nM, E: 5.9 nM, A: 0.3 nM)

1 = CC[C@@H](Cc1nc2c3cccc(OC)c3nc(N)n2n1)N1Cc2cccnc2C1
2 = CCc1ncc2n1CCN(CCc1nc3c4cccc(OC)c4nc(N)n3n1)C2
3 = COc1cccc2c1nc(N)n1nc(CCN3CCn4cc(C(F)(F)F)nc4C3)nc21
4 = COc1cccc2c1nc(N)n1nc(CCN3Cc4ccc(Cl)nc4C3)nc21
Endpoint returns the given molecules ordered by ascending EC50. State the ranking by listing the labels in the requested order.
3, 2, 4, 1
